Data origin: PubChem BioAssay (NCI)

Test system: HCC-2998 colon
assay details: NCI tumour cell line growth inhibition, 48 h
Record form. Attribute: TGI. Fill in for each entry.
One number for each entry, in µM.

Here are 2 molecules. What values of TGI were reported for them?
1. COC1=C(OC)[C@]2(OC)c3c(O)c(OC)c4c(c3O[C@@]23O[C@@H](c2ccccc2)CC=C3C1=O)[C@@H](O)C[C@H](c1ccccc1)O4
2. C=C1C(=O)O[C@H]2[C@H]1CC/C(COC(=O)NCc1cc(OC)cc(OC)c1)=C\CC[C@@]1(C)O[C@@H]21

Ans:
1.96
3.51

* * *

System: HCC-2998 colon
assay details: NCI tumour cell line growth inhibition, 48 h
experimental readout: TGI

{"compound": "CSC1(CC(=O)N2CCCCC2)C(=O)Nc2ccccc21 (stereo not given)", "experimental readout": "TGI", "reported": "> 100 µM"}

Fill in TGI for each of the 5 compounds listed.
1. COCN1C(=O)[C@@H]2CCCN2C(=O)c2ccc([N+](=O)[O-])cc21
2. C/C(=N/NC(N)=S)C(CN(C)C)C(C1=C(O)c2ccccc2OC1)c1ccccc1 (stereo not given)
3. Nc1ncnc2c1ncn2C1CC(OC2CCCCO2)C(CO)O1 (stereo not given)
4. O=c1cc(-c2cccc(OCc3ccccc3)c2)[nH]c2cc3c(cc12)OCO3
5. Nc1nc(=O)n(CC(O)CO)s1 (stereo not given)

Ans:
["> 100 µM", "> 100 µM", "> 100 µM", "0.751 µM", "> 100 µM"]

* * *

Assign TGI to each entry below.
System: HL-60(TB) leukemia
assay details: NCI tumour cell line growth inhibition, 48 h
Give bare numbers, in µM.

Consider the following illustrative entries.
{"molecule": "O=S(=O)(CCCCl)SCCCCl", "uom": "µM", "TGI": 24.5}
{"molecule": "O=[N+]([O-])c1ccc(C(=Nc2ccccc2)SSC(=Nc2ccccc2)c2ccc([N+](=O)[O-])o2)o1", "uom": "µM", "TGI": 8.61}
{"molecule": "C=C(C)[C@@H]1CC[C@]2(C(N)=O)CC[C@]3(C)[C@H](CC[C@@H]4[C@@]5(C)C/C(=C/c6cccnc6)[C@H](O)C(C)(C)[C@@H]5CC[C@]43C)[C@@H]12", "uom": "µM", "TGI": 11.2}

Would you mind listing TGI for each of the following molecules?
1. COc1ccc(C(c2cc3c(cc2O)OCO3)N2CCOCC2)cc1OC (stereo not given)
2. Cc1ccc2c(c1)C=CC(C#N)N2C(=O)Oc1ccccc1 (stereo not given)
3. Cc1cc2nc(C(Cl)Cl)nc(-c3ccccc3)n2n1
4. COc1ccc(N=CN(C)C)c(C)c1

Ans:
79.8
50.5
6.35
4.1

* * *

Tested on: RPMI-8226 leukemia
assay details: NCI tumour cell line growth inhibition, 48 h
experimental readout: TGI

These solved cases illustrate the format of a correct answer.
{"molecule": "CC1=CC(=O)/C(=C/n2c(=S)[nH]c3ccc([N+](=O)[O-])cc32)C(=O)O1", "tgt": "RPMI-8226 leukemia", "TGI": "> 100 µM"}
{"molecule": "FC(F)(F)c1cccc(C2SCc3nc4ccccc4n32)c1 (stereo not given)", "tgt": "RPMI-8226 leukemia", "TGI": "> 100 µM"}
{"molecule": "CC(CN)[C@@H]1CC[C@]2(CO)CC[C@]3(C)[C@H](CC[C@@H]4[C@@]5(C)CCC(N)C(C)(C)[C@@H]5CC[C@]43C)[C@@H]12 (stereo not given in full)", "tgt": "RPMI-8226 leukemia", "TGI": "4.58 µM"}
{"molecule": "NC(CC(=O)O)(Cc1ccccc1)C(=O)O (stereo not given)", "tgt": "RPMI-8226 leukemia", "TGI": "> 100 µM"}

Provide the reported TGI of each entry below, same order.
1. CCOP(=O)(OCC)C(Nc1ccc(C(=O)O)cc1)c1ccc(C(Nc2ccc(C(=O)O)cc2)P(=O)(OCC)OCC)cc1 (stereo not given)
2. N#CC1(C#N)C(c2ccccc2)C=CC(c2ccc([N+](=O)[O-])cc2)C1(C#N)C#N (stereo not given)

Ans:
["> 100 µM", "> 25.6 µM"]

Hi! Can you tell me TGI for each of these molecules?
1. Cc1ccccc1NC(=O)c1ccc([N+](=O)[O-])cc1
2. COc1ccc(C2C3=C(COC3=O)Oc3cc4c(cc32)OCO4)cc1 (stereo not given)

Ans:
1. > 100 µM
2. > 100 µM

Kindly give each listed record's TGI.
1. c1cc(NC2=NCCO2)c2c(c1)OCO2
2. COc1cccc(C2c3cc4c(cc3OC(N3CCCCC3)C2C)OCO4)c1OC (stereo not given)

Ans:
1. > 100 µM
2. 21.6 µM
